# protocol_notes: Acute toxicity, mouse
# condition_summary: in vivo, iv
Counter-ions that a name gives are not always drawn.
measured_attribute: LD50 (mg/kg)
Enter your answer as a number in mg/kg; do not include the unit.

Query :: Look up LD50: COc1cc(C2Oc3cc(C4Oc5cc(O)cc(O)c5C(=O)C4O)ccc3OC2COP(=O)(O)O)ccc1O (stereo not shown) [Silybin 11-phosphate (Ia, sodium salt), sodium salt of silybin 11-phosphate]
Result :: 235

====

# protocol_notes: Acute toxicity, rat
# condition_summary: in vivo, iv
Where a name gives a salt, the structure may show the parent alone.
measured_attribute: LD50 (mg/kg)
Enter your answer as a number in mg/kg; do not include the unit.

Query :: Look up LD50: COc1cc(C2Oc3cc(C4Oc5cc(O)cc(O)c5C(=O)C4O)ccc3OC2COP(=O)(O)O)ccc1O (stereo not shown) [Silybin 11-phosphate (Ia, sodium salt), sodium salt of silybin 11-phosphate]
Result :: 415
